Every entry's value here was drawn from patent US9938269B2.

Structures can show the parent of a compound that is named as a salt.
PDE10A (human) (Homo sapiens) measurements of IC50, listed per entry.
Sequence (Q9Y233 whole entry): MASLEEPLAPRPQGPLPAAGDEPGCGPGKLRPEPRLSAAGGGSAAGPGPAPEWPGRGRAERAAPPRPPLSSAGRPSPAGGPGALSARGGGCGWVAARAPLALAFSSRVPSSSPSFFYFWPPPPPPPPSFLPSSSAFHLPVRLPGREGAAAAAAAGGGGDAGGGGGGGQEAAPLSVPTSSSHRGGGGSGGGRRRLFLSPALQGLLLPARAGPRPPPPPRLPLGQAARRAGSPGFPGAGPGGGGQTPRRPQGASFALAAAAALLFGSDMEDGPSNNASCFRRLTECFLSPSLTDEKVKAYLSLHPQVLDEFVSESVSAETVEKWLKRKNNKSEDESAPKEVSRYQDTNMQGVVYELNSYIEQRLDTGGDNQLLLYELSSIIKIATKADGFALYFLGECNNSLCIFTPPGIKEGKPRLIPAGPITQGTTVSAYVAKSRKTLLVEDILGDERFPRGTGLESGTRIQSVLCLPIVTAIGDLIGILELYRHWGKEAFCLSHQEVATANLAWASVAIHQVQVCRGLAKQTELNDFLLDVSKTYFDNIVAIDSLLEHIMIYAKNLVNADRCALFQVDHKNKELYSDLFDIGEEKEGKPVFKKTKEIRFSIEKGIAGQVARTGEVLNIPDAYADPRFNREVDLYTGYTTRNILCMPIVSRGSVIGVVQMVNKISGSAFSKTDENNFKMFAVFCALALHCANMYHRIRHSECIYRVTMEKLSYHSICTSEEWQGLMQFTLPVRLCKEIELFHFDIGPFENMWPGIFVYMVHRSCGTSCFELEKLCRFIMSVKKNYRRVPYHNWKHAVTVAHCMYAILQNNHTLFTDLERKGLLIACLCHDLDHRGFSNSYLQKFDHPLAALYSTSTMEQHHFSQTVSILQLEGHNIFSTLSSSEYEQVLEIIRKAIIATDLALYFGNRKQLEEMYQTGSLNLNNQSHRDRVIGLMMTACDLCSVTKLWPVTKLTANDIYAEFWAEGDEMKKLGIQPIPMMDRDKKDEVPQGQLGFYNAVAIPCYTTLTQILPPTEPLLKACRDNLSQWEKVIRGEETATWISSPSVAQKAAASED

O=C1c2c(N3CCOCC3)ccnc2CN1CCc1cnc2ccccc2n1 [compound 495, trifluoroacetate] = < 100 nM
O=C1c2c(cccc2-c2ccc(C(F)(F)F)nc2)CN1CCc1ccc2ccccc2n1 = 200 to 500 nM
O=C1c2c(-c3cn[nH]c3)ccc(F)c2CN1CCc1ccc2ccccc2n1 [compound 442, trifluoroacetate] = < 100 nM

Now for another entry.
// IC50 lookup, key: O=C1c2c(cccc2N2C[C@@H]3CCCNC[C@H]3C2)CN1CCc1ccc2ccccc2n1 [Example 317, trifluoroacetate] 200 to 500 nM

----------
experiment: Determination of the microsomal half-life, human liver microsomes; details: human, liver microsomes, pH 7.4
Where a name gives a salt, the structure may show the parent alone.
microsomal CLint at 0.5 μM listing for selected compounds.

Known results for compounds:
Cc1ccc(CCN2Cc3nccc(N4CCOCC4)c3C2=O)nc1C = 100 to 220 µL/min/mg
O=C1c2c(cccc2-c2cncnc2)CN1CCc1ccc2ccccc2n1 = > 220 µL/min/mg
O=C1c2c(-c3ccncc3F)ccnc2CN1CCc1cn2ccccc2n1 = < 100 µL/min/mg
Cc1cnc(CCN2Cc3nccc(-c4ccncc4)c3C2=O)c(C)c1 = 100 to 220 µL/min/mg
CCc1ccn2cc(CCN3Cc4nccc(-c5ccncc5)c4C3=O)nc2c1 = < 100 µL/min/mg

// microsomal CLint at 0.5 μM lookup, key: "O=C1c2c(ccc(F)c2-c2ccncc2)CN1CCc1ccc2ccccc2n1" 100 to 220 µL/min/mg

// microsomal CLint at 0.5 μM lookup, key: "O=C1c2c(cccc2N2CCNCC2)CN1CCc1ccc2ccccc2n1" < 100 µL/min/mg

// microsomal CLint at 0.5 μM lookup, key: "O=C1c2c(NC3COC3)ccnc2CN1CCc1ccc2ccccc2n1" < 100 µL/min/mg

// microsomal CLint at 0.5 μM lookup, key: COc1ccc2nc(CCN3Cc4cccc(N5CCOCC5)c4C3=O)ccc2c1 [Example 116, hydrochloride] 100 to 220 µL/min/mg

----------
test: Determination of the microsomal half-life, rat liver microsomes; settings: rat, liver microsomes, pH 7.4
Structures can show the parent of a compound that is named as a salt.
microsomal CLint at 0.5 μM listing for selected molecules.

O=C1c2c(cccc2-c2ccc3[nH]c(=O)[nH]c3c2)CN1CCc1ccc2ccccc2n1 [Example 9, trifluoroacetate] = 100 to 220 µL/min/mg
O=C1c2c(N3CC4COCC4C3)ccnc2CN1CCc1nc2ccccc2s1 (stereo not shown) = < 100 µL/min/mg
O=C1c2c(cccc2N2C[C@H]3CCCNC[C@H]3C2)CN1CCc1ccc2ccccc2n1 [Example 318, trifluoroacetate] = > 220 µL/min/mg

Now for another entry.
// microsomal CLint at 0.5 μM lookup, key: "CC(C)c1ccc(CCN2Cc3nccc(-c4ccncc4)c3C2=O)nc1" > 220 µL/min/mg

----------
assay: Determination of the microsomal half-life, rat liver microsomes; settings: rat, liver microsomes, pH 7.4
endpointLabel: microsomal CLint at 0.5 μM

O=C1c2c(-c3ccncc3)cccc2C(F)(F)N1CCc1ccc2ccccc2n1 [Example 4] = > 220 µL/min/mg

// microsomal CLint at 0.5 μM lookup, key: O=C1c2c(N3CCOCC3)ccnc2CN1CCc1nc2ccc(F)cc2s1 [compound 405] 100 to 220 µL/min/mg

// microsomal CLint at 0.5 μM lookup, key: COC(=O)C1CN(Cc2cccc3c2C(=O)N(CCc2ccc4ccccc4n2)C3)C1 [compound 531] < 100 µL/min/mg

// microsomal CLint at 0.5 μM lookup, key: COc1ccc(-c2cccc3c2C(=O)N(CCc2cn4ccccc4n2)C3)cc1 [Example 237] 100 to 220 µL/min/mg

// microsomal CLint at 0.5 μM lookup, key: O=C1c2c(cccc2-c2ccc(F)cc2)CN1CCc1cn2ccccc2n1 [Example 236] 100 to 220 µL/min/mg

// microsomal CLint at 0.5 μM lookup, key: O=C1c2c(-c3cn[nH]c3)ccnc2CN1CCc1ccc2ccccc2n1 [Example 156] 100 to 220 µL/min/mg

----------
microsomal CLint at 0.5 μM listing for selected molecules.
assay: Determination of the microsomal half-life, human liver microsomes; conditions: human, liver microsomes, pH 7.4
Where a name gives a salt, the structure may show the parent alone.

Known results for molecules:
COC(=O)C1CN(Cc2cccc3c2C(=O)N(CCc2ccc4ccccc4n2)C3)C1 = < 100 µL/min/mg
O=C1c2c(-c3ccncc3)ccnc2CN1CCc1cnc2ccccc2n1 = < 100 µL/min/mg
O=C1c2c(cccc2-c2ccncc2)CN1CCc1nc2ccccc2n1C(F)F [compound 450, trifluoroacetate] = > 220 µL/min/mg
Cn1c(CCN2Cc3nccc(N4CCOCC4)c3C2=O)nc2ccccc21 = < 100 µL/min/mg
Cn1nccc1-c1ccnc2c1C(=O)N(CCc1nc3ccccn3n1)C2 [Example 213, trifluoroacetate] = < 100 µL/min/mg

// microsomal CLint at 0.5 μM lookup, key: CN(C)CCCn1c(CCN2Cc3cccc(-c4ccncc4)c3C2=O)nc2ccccc21 [Example 294, trifluoroacetate] 100 to 220 µL/min/mg

----------
microsomal CLint at 0.5 μM listing for selected compounds.
assay: Determination of the microsomal half-life, rat liver microsomes; details: rat, liver microsomes, pH 7.4
Where a name gives a salt, the structure may show the parent alone.

Known results for compounds:
CCOc1ncc(-c2cccc3c2CN(CCc2ccc4ccccc4n2)C3=O)cn1 = > 220 µL/min/mg
O=C1c2cccc(-c3cc[nH]n3)c2CN1CCc1cn2ccccc2n1 [Example 314, trifluoroacetate] = < 100 µL/min/mg
Cn1c(CCN2Cc3cccc(-c4cncnc4)c3C2=O)nc2ccccc21 = < 100 µL/min/mg
O=C1c2c(OC3COC3)ccnc2CN1CCc1ccc2ccccc2n1 = 100 to 220 µL/min/mg
CN(C)Cc1ccc(-c2cccc3c2C(=O)N(CCc2ccc4ccccc4n2)C3)cc1 [Example 188, (dihydrochloride)] = 100 to 220 µL/min/mg

// microsomal CLint at 0.5 μM lookup, key: "O=C1c2c(ccc(F)c2-c2ccncc2)CN1CCc1ccc2ccccc2n1" 100 to 220 µL/min/mg

// microsomal CLint at 0.5 μM lookup, key: "Cn1c(CCN2Cc3nccc(-c4cncnc4)c3C2=O)nc2ccccc21" < 100 µL/min/mg

// microsomal CLint at 0.5 μM lookup, key: "O=C1c2c(-c3ccncc3)ccnc2CN1CCc1nc2ccc(F)cc2s1" 100 to 220 µL/min/mg

----------
assay: Determination of the microsomal half-life, rat liver microsomes; conditions: rat liver microsomes, 0.5 μM test substance, 0.25 mg microsomal protein, pH 7.4, 37° C., NADPH
endpointLabel: Rat mCl (mikrosomal clearance)

CN1CC2CN(c3cccc4c3C(=O)N(CCc3ccc5ccccc5n3)C4)CC2C1 (stereo not shown) [Example 154] = −∘

----------
assay: Determination of the microsomal half-life, rat liver microsomes; details: rat, liver microsomes, pH 7.4
Counter-ions that a name gives are not always drawn.
microsomal CLint at 0.5 μM listing for selected molecules.

Known results for molecules:
CN1CCN(c2ccnc3c2C(=O)N(CCc2nc4ccccc4n2C)C3)CC1 [Example 226, trifluoroacetate] = < 100 µL/min/mg
O=C1c2c(cccc2N2CCOCC2)CN1CCc1nc2ccccn2n1 = < 100 µL/min/mg
O=C1c2c(cncc2-c2ccncc2)CN1CCc1ccc2ccccc2n1 = 100 to 220 µL/min/mg
CN(C)CCOc1ccc(-c2ccncc2)c2c1CN(CCc1ccc3ccccc3n1)C2=O = < 100 µL/min/mg
O=C1c2c(cccc2-c2ccncc2)CN1CCc1nc2ccccc2n1C(F)F [compound 450, trifluoroacetate] = 100 to 220 µL/min/mg
O=C1c2c(cccc2-c2ccc3nn[nH]c3c2)CN1CCc1ccc2ccccc2n1 [Example 10, trifluoroacetate] = < 100 µL/min/mg
O=C1c2c(NC3COC3)ccnc2CN1CCc1ccc2ccccc2n1 = < 100 µL/min/mg
Cc1nc(CCN2Cc3nccc(N4CCOCC4)c3C2=O)sc1C = > 220 µL/min/mg

// microsomal CLint at 0.5 μM lookup, key: "Cc1cccnc1CCN1Cc2nccc(-c3ccncc3)c2C1=O" < 100 µL/min/mg

// microsomal CLint at 0.5 μM lookup, key: "COc1ccc(-c2ccnn2C)c2c1CN(CCc1ccc3ccccc3n1)C2=O" > 220 µL/min/mg

// microsomal CLint at 0.5 μM lookup, key: O=C1c2c(-c3ccncc3)ccnc2CN1CCc1cn2cc(F)ccc2n1 [compound 494, trifluoroacetate] < 100 µL/min/mg

----------
experiment: Determination of the microsomal half-life, rat liver microsomes; conditions: rat, liver microsomes, pH 7.4
Counter-ions that a name gives are not always drawn.
endpointLabel: microsomal CLint at 0.5 μM

// microsomal CLint at 0.5 μM lookup, key: CN(C)CC1CN(c2cccc3c2C(=O)N(CCc2ccc4ccccc4n2)C3)CCO1 (centres unmarked) [Example 229, trifluoroacetate] < 100 µL/min/mg

// microsomal CLint at 0.5 μM lookup, key: O=C1c2c(-c3ccnnc3)ccnc2CN1CCc1ccc2ccccc2n1 [Example 338] < 100 µL/min/mg

// microsomal CLint at 0.5 μM lookup, key: O=C1c2c(-c3ccncc3)ccnc2CN1CCc1ccc2ccccc2n1 [Example 3] 100 to 220 µL/min/mg

// microsomal CLint at 0.5 μM lookup, key: Cn1c(CCN2Cc3cccc(-c4ccncc4)c3C2=O)nc2ccccc21 [Example 195] 100 to 220 µL/min/mg

// microsomal CLint at 0.5 μM lookup, key: Cc1ccc2c(c1)nc(CCN1Cc3nccc(-c4cncnc4)c3C1=O)n2C [compound 535] < 100 µL/min/mg
